target: human CD33 R62A (human, UniProt P20138 18-364); test: alanine scan, flow cytometry;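 note: HEK293-T cells transiently expressing single-residue alanine mutants of CD33 (alanine swapped to serine), antibody binding read by fluorescence in duplicate, background-subtracted, expressed relative to wild-type CD33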
Sequence (P20138 18-364 R62A limits assumed): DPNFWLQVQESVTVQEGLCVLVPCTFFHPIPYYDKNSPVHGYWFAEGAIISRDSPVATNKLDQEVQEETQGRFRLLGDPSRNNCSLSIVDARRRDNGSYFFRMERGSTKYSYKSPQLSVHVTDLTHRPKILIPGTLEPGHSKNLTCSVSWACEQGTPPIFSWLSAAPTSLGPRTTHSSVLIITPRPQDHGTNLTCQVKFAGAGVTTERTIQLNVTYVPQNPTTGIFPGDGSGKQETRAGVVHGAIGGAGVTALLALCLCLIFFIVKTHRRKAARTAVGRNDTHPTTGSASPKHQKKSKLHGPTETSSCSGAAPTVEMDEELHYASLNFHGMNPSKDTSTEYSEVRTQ
Recorded Mean % WT Binding, one value per entry.
MEASUREMENT_TYPE: Mean % WT Binding (% WT)

[
  {
    "BINDER": "Refmab #2 (antibody, V domains shown, Full-length format is human IgG1 Fc silent (PG-LALA); The alanine scan used IgG or Fab) VH: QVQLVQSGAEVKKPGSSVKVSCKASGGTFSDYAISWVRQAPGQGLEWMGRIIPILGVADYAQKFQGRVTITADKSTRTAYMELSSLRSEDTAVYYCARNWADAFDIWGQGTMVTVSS VL: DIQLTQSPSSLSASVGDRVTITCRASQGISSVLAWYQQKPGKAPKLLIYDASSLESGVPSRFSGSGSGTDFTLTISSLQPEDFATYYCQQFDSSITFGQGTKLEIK",
    "MEASUREMENT_TYPE": "Mean % WT Binding",
    "OBSERVED_RESULT": 124
  },
  {
    "BINDER": "Refmab #3 (antibody, V domains shown, Full-length format is human IgG1 Fc silent (PG-LALA); The alanine scan used IgG or Fab) VH: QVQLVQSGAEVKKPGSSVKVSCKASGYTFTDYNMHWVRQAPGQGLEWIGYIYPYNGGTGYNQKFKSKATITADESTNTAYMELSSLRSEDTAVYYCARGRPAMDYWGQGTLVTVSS VL: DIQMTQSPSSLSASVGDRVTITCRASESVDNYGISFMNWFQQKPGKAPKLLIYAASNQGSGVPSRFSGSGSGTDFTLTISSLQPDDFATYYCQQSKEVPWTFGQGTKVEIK",
    "MEASUREMENT_TYPE": "Mean % WT Binding",
    "OBSERVED_RESULT": 91.8
  },
  {
    "BINDER": "Refmab #1 (antibody, V domains shown, Full-length format is human IgG1 (Absolute Antibody Ab00283-10.0); The alanine scan used IgG or Fab; also called hP67.6) VH: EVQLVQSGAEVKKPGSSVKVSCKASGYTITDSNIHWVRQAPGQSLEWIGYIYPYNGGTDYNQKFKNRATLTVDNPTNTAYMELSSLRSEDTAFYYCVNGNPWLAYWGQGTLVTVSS VL: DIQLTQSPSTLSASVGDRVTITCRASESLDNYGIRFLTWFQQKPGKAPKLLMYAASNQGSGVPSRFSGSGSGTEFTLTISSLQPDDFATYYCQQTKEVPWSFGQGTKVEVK",
    "MEASUREMENT_TYPE": "Mean % WT Binding",
    "OBSERVED_RESULT": 121
  },
  {
    "BINDER": "Refmab #4 (antibody, V domains shown, Full-length format is human IgG1 Fc silent (PG-LALA); The alanine scan used IgG or Fab) VH: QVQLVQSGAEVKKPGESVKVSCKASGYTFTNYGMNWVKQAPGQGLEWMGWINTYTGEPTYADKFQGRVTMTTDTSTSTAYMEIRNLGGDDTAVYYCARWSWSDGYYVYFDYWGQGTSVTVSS VL: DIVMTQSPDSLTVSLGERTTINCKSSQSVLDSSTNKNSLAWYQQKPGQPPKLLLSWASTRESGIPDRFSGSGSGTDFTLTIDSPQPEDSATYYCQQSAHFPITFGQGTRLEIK",
    "MEASUREMENT_TYPE": "Mean % WT Binding",
    "OBSERVED_RESULT": 104
  }
]
